System: panel of hematologic and solid cancer lines
assay.name: 6-day in vitro growth/death assay
Format: cell-based, human
conditions.used: Homo sapiens, DMS-273, DMS273; read-out: gIC50
measured.metric: pIC50
The value called pIC50 is obtained by taking minus log10 of the concentration in mol/L.

input: So what's the measured pIC50 for this one? O=C(NC[C@H](O)CN1CCc2ccccc2C1)c1ccnc(NC2CCC2)c1
output: 6.58

###

Test system: panel of hematologic and solid cancer lines
assay.name: 6-day in vitro growth/death assay
Assay type: cell-based, human
conditions.used: Homo sapiens, Caco-2, CaCo-2; read-out: gIC50
measured.metric: pIC50
# pIC50: negative log10 of molar concentration; output just the value

input: Write down the reported pIC50 of O=C(NC[C@H](O)CN1CCc2ccccc2C1)c1ccnc(NC2CCC2)c1 , test system: panel of hematologic and solid cancer lines.
output: 6.13

###

Tested on: panel of 240 cancer cell lines
assay.name: 10-day growth/death assay (Eurofins panel)
Format: cell-based
conditions.used: Homo sapiens, CAKI-1, Caki-1; read-out: gIC50
measured.metric: IC50 (µM)
Hi! Could you send only the number? It should be in µM, unit omitted.

input: Given the molecule O=C(NC[C@H](O)CN1CCc2ccccc2C1)c1ccnc(NC2CCC2)c1 [GSK3203591] , what is its reported IC50?
output: 0.0688

###

Test system: panel of hematologic and solid cancer lines
assay.name: 6-day in vitro growth/death assay
Assay type: cell-based, human
conditions.used: Homo sapiens, Calu-6, Calu6; read-out: gIC50
measured.metric: IC50
Write down the value, and be sure its unit follows.

input: Given the entry O=C(NC[C@H](O)CN1CCc2ccccc2C1)c1ccnc(NC2CCC2)c1 , report its measured IC50.
output: 1280 nM

###

Test system: panel of hematologic and solid cancer lines
assay.name: 6-day in vitro growth/death assay
Format: cell-based, human
conditions.used: Homo sapiens, HCC2935, HCC2935; read-out: gIC50
measured.metric: IC50 (µM)
Write the answer as a number in µM, unit excluded.

input: Which IC50 value is on record for O=C(NC[C@H](O)CN1CCc2ccccc2C1)c1ccnc(NC2CCC2)c1 [GSK3203591] ?
output: 21.6

###

Test system: panel of 240 cancer cell lines
assay.name: 10-day growth/death assay (Eurofins panel)
Assay type: cell-based
conditions.used: Homo sapiens, SK-N-FI; read-out: gIC50
From the text: To further develop these molecules and to guide clinical strategy, it was necessary to understand sensitivity in preclinical models by assessing the anti-tumour activity of the PRMT5 inhibitors in various cancers. […] Lymphoma, including MCL and diffuse large B-cell lymphoma (DLBCL), breast, and multiple myeloma cell lines were among the most sensitive tumour types and had gIC50 values in the low nM range (Fig. 1B). […]
measured.metric: pIC50
Note: pIC50 values are expressed as the negative base-10 logarithm of concentration in M.

input: Could you tell me which pIC50 is on file for O=C(NC[C@H](O)CN1CCc2ccccc2C1)c1ccnc(NC2CCC2)c1 ?
output: 6.51

###

Tested on: panel of 240 cancer cell lines
assay.name: 10-day growth/death assay (Eurofins panel)
Format: cell-based
conditions.used: Homo sapiens, SNU1, SNU-1; read-out: gIC50
measured.metric: pIC50
// returns pIC50 (minus log10 of molar concentration), number only

input: Give pIC50 (panel of 240 cancer cell lines) of the following compound: O=C(NC[C@H](O)CN1CCc2ccccc2C1)c1ccnc(NC2CCC2)c1 [GSK3203591]
output: 5.98
